target: PRMT5/MEP50 complex (Homo sapiens); assay: Inhibition of recombinant human fetal brain FLAG-tagged PRMT5/full length human testis 6His-tagged MEP50 expressed in baculovirus infected insect Sf9 cells using human histone H4 (1 to 15 residues) as substrate preincubated for 30 mins followed by [3H]-SAM addition
Readout: IC50

Please fill in: IC50 reported for OC(CNc1cccc(CNC2CCCC2)c1)CN1CCc2ccccc2C1 (stereo unspecified) = 101 to 1000 nM

Please fill in: IC50 reported for Cn1cc(-c2cccc(OCC(O)CN3CCc4ccccc4C3)c2)cn1 (stereo unspecified) = 1000 to 10000 nM

----------
biological target: PRMT5/MEP50 complex (Homo sapiens, UniProt O14744); test: Inhibition of recombinant human fetal brain FLAG-tagged PRMT5/full length human testis 6His-tagged MEP50 expressed in baculovirus infected insect Sf9 cells using human histone H4 (1 to 15 residues) as substrate preincubated for 30 mins followed by [3H]-SAM addition
Sequence (O14744 whole entry, the tested form may be a part): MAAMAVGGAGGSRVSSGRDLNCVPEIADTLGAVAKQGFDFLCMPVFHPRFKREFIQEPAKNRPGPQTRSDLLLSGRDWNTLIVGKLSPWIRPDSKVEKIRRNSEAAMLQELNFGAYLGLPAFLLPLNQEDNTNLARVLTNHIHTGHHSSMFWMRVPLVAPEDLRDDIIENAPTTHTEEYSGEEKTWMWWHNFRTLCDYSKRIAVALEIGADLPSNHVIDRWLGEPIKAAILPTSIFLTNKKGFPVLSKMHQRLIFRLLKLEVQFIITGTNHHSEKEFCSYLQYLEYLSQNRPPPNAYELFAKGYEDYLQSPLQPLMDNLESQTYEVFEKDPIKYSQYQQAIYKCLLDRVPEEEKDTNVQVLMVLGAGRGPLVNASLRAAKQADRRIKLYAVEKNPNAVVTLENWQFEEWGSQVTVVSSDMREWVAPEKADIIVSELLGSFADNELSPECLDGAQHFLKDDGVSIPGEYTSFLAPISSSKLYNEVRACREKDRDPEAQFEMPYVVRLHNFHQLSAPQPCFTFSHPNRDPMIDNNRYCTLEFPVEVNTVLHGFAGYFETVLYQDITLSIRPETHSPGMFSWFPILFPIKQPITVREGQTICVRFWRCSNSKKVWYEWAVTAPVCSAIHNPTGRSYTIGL
Sequence (Q9BQA1 whole entry, further chain, the tested form may be a part): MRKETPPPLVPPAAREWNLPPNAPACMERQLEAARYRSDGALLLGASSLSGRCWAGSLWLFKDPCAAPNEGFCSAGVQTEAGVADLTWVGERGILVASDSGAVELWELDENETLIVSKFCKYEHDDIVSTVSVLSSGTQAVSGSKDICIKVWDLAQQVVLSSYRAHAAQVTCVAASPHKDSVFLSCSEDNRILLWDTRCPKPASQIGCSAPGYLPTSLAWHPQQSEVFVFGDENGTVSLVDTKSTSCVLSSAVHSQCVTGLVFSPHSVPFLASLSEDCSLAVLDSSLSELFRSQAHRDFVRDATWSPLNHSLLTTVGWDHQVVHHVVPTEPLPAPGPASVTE
pIC50: −log10 of the molar value.
Readout: pIC50

Take a look at these entries with their results.
# Molecule, Recorded result
data = [
    ("COc1cccc(COCC(O)CN2CCc3ccccc3C2)c1 (stereo not drawn)", "5.00 to 6.00"),
    ("Cn1cnc2cc(-c3cccc(OCC(O)CN4CCc5ccccc5C4)c3)ccc21 (stereo not drawn)", "6.00 to 7.00"),
    ("Cn1ncc2ccc(-c3ccnc(NCC(O)CN4CCc5ccccc5C4)c3)cc21 (stereo not drawn)", "> 7.00"),
]

Please fill in: pIC50 reported for OC(COc1cccc(-c2ccccc2Oc2ccccc2)c1)CN1CCc2ccccc2C1 (stereo not drawn) = 6.00 to 7.00

Please fill in: pIC50 reported for Cc1cn(C)c2cc(-c3cccc(OCC(O)CN4CCc5ccccc5C4)c3)ccc12 (stereo not drawn) = 6.00 to 7.00
